Data credit: patent US20050282739A1

system under test: T1, melanocortin-1 receptor (MC1-R) of B-16 mouse melanoma cells (mouse, UniProt Q01727 1-315)
T1 construct: whole, on cells; membranes prepared from the cells were used; also called Melanocortin Receptor 1
T1 sequence (Q01727 whole entry): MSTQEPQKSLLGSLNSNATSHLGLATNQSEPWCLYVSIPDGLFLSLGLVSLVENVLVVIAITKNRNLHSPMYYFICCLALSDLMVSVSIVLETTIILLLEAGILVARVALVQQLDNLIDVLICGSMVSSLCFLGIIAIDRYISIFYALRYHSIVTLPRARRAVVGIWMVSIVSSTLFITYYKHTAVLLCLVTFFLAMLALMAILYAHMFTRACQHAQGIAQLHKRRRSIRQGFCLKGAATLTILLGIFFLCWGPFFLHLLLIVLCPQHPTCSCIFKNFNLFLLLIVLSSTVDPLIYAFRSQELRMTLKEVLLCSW
procedure summary: 125I-NDP-α-MSH competition, B-16 membranes
Square brackets hold non-standard residues; d marks the D form. Ends that are not written are not given here. Nle = CCCC[C@H](N)C(=O)O
readout: % Inhibition at 1 µM (%)

// worked examples, % Inhibition at 1 µM included
binder	readout	assay result
Ac-SYS[dC][Nle]EHFRWGKPV-NH2 (also: oxorhenium(V) N3S1 chelate at D-Cys4) [metallopeptide 2-11]	% Inhibition at 1 µM	95
Ac-SYS[Nle][dC]EHFRWGKPV-NH2 (also: oxorhenium(V) N3S1 chelate at D-Cys5) [metallopeptide 2-10]	% Inhibition at 1 µM	65
Ac-SYS[Nle]EHF[dC]RWGKPV-NH2 (also: oxorhenium(V) N3S1 chelate at D-Cys8) [metallopeptide 2-7]	% Inhibition at 1 µM	54
Ac-SYS[Nle]EHFRW[dC]GKPV-NH2 (also: oxorhenium(V) N3S1 chelate at D-Cys10) [metallopeptide 2-5]	% Inhibition at 1 µM	43
Ac-SYS[Nle]EHFRWGKG[dC]V-NH2 (also: oxorhenium(V) N3S1 chelate at D-Cys13) [metallopeptide 2-2]	% Inhibition at 1 µM	93

1. YVXGHFRWDRF (Nle 3; C-terminal amide, not complexed to Re) [[Nle3]-γ-MSH parent polypeptide Tyr-Val-Nle-Gly-His-Phe-Arg-Trp-Asp-Arg-Phe-NH2]
2. YVXGHFRWDRFC (not fully specified; Nle 3; C-terminal amide; Re complexed at Cys 12) [metallopeptide 4-1]
3. YV[Nle]GCHFRWDRF-NH2 (also: oxorhenium(V) N3S1 chelate: C5 SG + backbone N of X3, G4, C5, bridge at 5 via Re(V)=O, other end not in the chain) [metallopeptide 4-8]
Order field: % Inhibition at 1 µM | Direction: descending (largest first) Put the labels in the requested order and write them down.
1, 2, 3
(1: 83%, 2: 56%, 3: 13%)
